Where these numbers come from: ChEMBL document CHEMBL4396920

Molecular target: Nuclear receptor subfamily 1 group I member 2 (Homo sapiens)
Sequence (O75469 whole entry): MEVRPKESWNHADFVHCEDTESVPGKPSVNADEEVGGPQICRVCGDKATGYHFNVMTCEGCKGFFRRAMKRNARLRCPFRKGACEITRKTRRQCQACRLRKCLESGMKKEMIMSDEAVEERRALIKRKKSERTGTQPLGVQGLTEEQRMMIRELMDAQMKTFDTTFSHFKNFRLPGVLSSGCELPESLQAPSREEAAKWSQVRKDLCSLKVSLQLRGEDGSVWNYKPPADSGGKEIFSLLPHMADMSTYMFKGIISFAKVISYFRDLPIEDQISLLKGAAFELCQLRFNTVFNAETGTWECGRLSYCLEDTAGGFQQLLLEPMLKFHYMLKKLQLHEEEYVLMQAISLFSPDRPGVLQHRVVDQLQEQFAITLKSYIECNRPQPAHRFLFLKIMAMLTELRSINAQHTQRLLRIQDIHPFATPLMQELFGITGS
Test: Agonist activity at human PXR transfected in human HepG2 cells cotransfected with CYP3A4 incubated for 23 hrs by luciferase reporter gene assay
Give EC50 for every item shown.
Answer format: numeric, nM implied, no suffix.

Query: GET /values?readout=EC50&item= Clc1ccc(-c2nc3sccn3c2/C=N/OCc2ccc(Cl)c(Cl)c2)cc1
Reply: 990

Query: I have this molecule here, C(=N\OCc1ccc(Oc2ccccc2)cc1)/c1c(-c2ccc3ccccc3c2)nc2occn12 , and I need its recorded EC50.
Reply: 1100

Query: Fill in: EC50 of FC(F)(F)c1ccc(CO/N=C/c2c(-c3ccc4ccccc4c3)nc3occn23)cc1 is ___
Reply: 2000

Query: Data request, read-out EC50, for CC1(C)CCC(C)(C)c2cc(-c3nc4sccn4c3/C=N/OCc3ccc(Cl)c(Cl)c3)ccc21
Reply: 3600

Query: Consider the molecule Clc1ccc(-c2nc3occn3c2/C=N/OCc2ccc(Cl)c(Cl)c2)cc1 and give its measured EC50.
Reply: 1300

###

Target: Nuclear receptor subfamily 1 group I member 2 (Homo sapiens)
Assay: Ratio of Emax to EC50 for agonist activity at human PXR transfected in human HepG2 cells cotransfected with CYP3A4 by luciferase reporter gene assay
Assay type: cell-based
quantity_name: Ratio

Query: I have this molecule here, CC1(C)CCC(C)(C)c2cc(-c3nc4sccn4c3/C=N/OCc3ccc(Cl)c(Cl)c3)ccc21 , and I need its recorded Ratio.
Reply: 0.64

Query: Give the measured Ratio of Clc1ccc(-c2nc3occn3c2/C=N/OCc2ccc(Cl)c(Cl)c2)cc1 .
Reply: 1.3

Query: Could you tell me which Ratio is on file for FC(F)(F)c1ccc(CO/N=C/c2c(-c3ccc4ccccc4c3)nc3occn23)cc1 ?
Reply: 0.85

Query: Give the measured Ratio of C(=N\OCc1ccc(Oc2ccccc2)cc1)/c1c(-c2ccc3ccccc3c2)nc2occn12 .
Reply: 1.6

Query: Query (molecule): Clc1ccc(CO/N=C/c2c(-c3ccc4ccccc4c3)nc3occn23)cc1Cl ; field requested: Ratio
Reply: 0.37

Query: Recorded Ratio of C(=N\OCc1ccccc1)/c1c(-c2ccc3ccccc3c2)nc2occn12 , please.
Reply: 1

Query: Which Ratio value is on record for Clc1ccc(CO/N=C/c2c(-c3ccc(-c4ccccc4)cc3)nc3sccn23)cc1Cl ?
Reply: 0.06

###

Molecular target: Nuclear receptor subfamily 1 group I member 3 (Homo sapiens)
Sequence (Q14994 whole entry): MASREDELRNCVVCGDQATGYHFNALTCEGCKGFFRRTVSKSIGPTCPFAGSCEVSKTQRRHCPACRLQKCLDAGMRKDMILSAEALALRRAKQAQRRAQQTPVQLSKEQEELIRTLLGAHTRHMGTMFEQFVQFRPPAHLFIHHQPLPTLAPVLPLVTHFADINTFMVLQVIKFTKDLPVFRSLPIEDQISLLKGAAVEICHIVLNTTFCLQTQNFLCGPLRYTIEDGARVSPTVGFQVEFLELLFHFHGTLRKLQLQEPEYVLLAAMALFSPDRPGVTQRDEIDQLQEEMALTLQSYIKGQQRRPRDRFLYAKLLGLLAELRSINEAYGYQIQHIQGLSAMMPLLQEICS
Experiment: Ratio of Emax to EC50 for agonist activity at human CAR transfected in human HepG2 cells cotransfected with CYP2B6 by luciferase reporter gene assay
Type: cell-based
Label Criterion met when Ratio is strictly below 3; at or above that, label Criterion not met.

Query: Ratio under 3? Item: COc1ccc(CO/N=C/c2c(-c3ccc4ccccc4c3)nc3occn23)cc1
Reply: Criterion met

Query: Dear colleague, could you confirm whether Ratio of COc1ccc(-c2nc3sccn3c2/C=N/OCc2ccc(Cl)c(Cl)c2)cc1 falls below 3? Thanks.
Reply: Criterion not met

Query: Consider FC(F)(F)c1ccc(CO/N=C/c2c(-c3ccc4ccccc4c3)nc3occn23)cc1 . Does its Ratio lie strictly below 3?
Reply: Criterion not met

Query: Strictly below 3: is that where Ratio of CC(C)(C)c1ccc(-c2nc3sccn3c2/C=N/OCc2ccc(Cl)c(Cl)c2)cc1 sits?
Reply: Criterion met

Query: Dear colleague, could you confirm whether Ratio of Clc1ccc(CO/N=C/c2c(-c3ccccc3)nc3sccn23)cc1Cl falls below 3? Thanks.
Reply: Criterion not met

Query: State whether 3 exceeds Ratio recorded for Clc1ccc(CO/N=C/c2c(-c3ccc4ccccc4c3)nc3occn23)cc1Cl .
Reply: Criterion not met

Query: Input Clc1ccc(CO/N=C/c2c(-c3cccc4ccccc34)nc3sccn23)cc1Cl ; condition: Ratio strictly below 3. Does it hold?
Reply: Criterion met

Query: Dear colleague, could you confirm whether Ratio of Clc1ccc(-c2nc3occn3c2/C=N/OCc2ccc(Cl)c(Cl)c2)cc1 falls below 3? Thanks.
Reply: Criterion not met

Query: Answer whether the molecule C(=N\OCc1ccccc1)/c1c(-c2ccc3ccccc3c2)nc2occn12 has Ratio strictly less than 3
Reply: Criterion not met

Query: Answer whether the molecule C(=N\OC1Cc2ccccc2C1)/c1c(-c2ccc3ccccc3c2)nc2occn12 has Ratio strictly less than 3
Reply: Criterion not met

Query: Criterion: Ratio strictly below 3. Is it met by CCc1nc2sccn2c1/C=N/OCc1ccc(Cl)c(Cl)c1 ?
Reply: Criterion met

Query: State whether 3 exceeds Ratio recorded for CC(C)(C)c1ccc(CO/N=C/c2c(-c3ccc4ccccc4c3)nc3occn23)cc1 .
Reply: Criterion met

Query: Does FC(F)(F)c1ccc(-c2nc3sccn3c2/C=N/OCc2ccc(Cl)c(Cl)c2)cc1 have Ratio strictly under 3?
Reply: Criterion met

Query: Is the reported Ratio for Clc1ccc(CO/N=C/c2c(-c3ccc(Br)cc3)nc3sccn23)cc1Cl strictly below 3?
Reply: Criterion not met

Query: In plain terms, does N#Cc1ccc(-c2nc3sccn3c2/C=N/OCc2ccc(Cl)c(Cl)c2)cc1 come in under 3 for Ratio?
Reply: Criterion met
